# protocolSummary: A High-Content qHTS Against Drug Library for the Identification of Small Molecules that Inhibit DYT1 Early Onset Primary Dystonia-Associated Cell Pathology (AID 1645839)
# conditionInfo: HEK293 Flp-In EGFP-delE TorsinA, punctate imaging, 48 h; series mostly up to 46.1 µM
Inconclusive results are not listed. Calls of active or inactive are those of the source. Calls follow the shape of the full dose curve.
propertyName: % pathology change, negative = correction

> print(dat)
                                   molecule    result
1              CC(C)[C@@H]1CC[C@@H](C)CC1=O  inactive
2             CCN(CC)CCNC(=O)COc1ccc(OC)cc1  inactive
3  CN1CCN(c2cc3c(cc2F)c(=O)c(C(=O)O)cn3-c2ccc(F)cc2)CC1  inactive
4           Cc1cc(-c2ccccc2)nnc1NCCN1CCOCC1  inactive
5            Cl/C(=C\n1cncn1)c1ccc(Cl)cc1Cl  inactive
6       Cc1cc(NS(=O)(=O)c2ccc(N)cc2)nc(C)n1  inactive

Task: Please give the documented % pathology change, negative = correction of CCN(CC)CCOC(=O)C(Cc1cccc2ccccc12)CC1CCCO1 (configuration not stated)
Output: inactive

---

# Test system: CP335
# protocolSummary: qHTS profiling for inhibitors of Plasmodium falciparum proliferation (AID 504749); also: nearly all actives have a fitted effect of over 60% in size
# conditionInfo: P. falciparum in erythrocytes, SYBR Green DNA, 72 h; series mostly up to 28.7 µM
Records with an inconclusive call do not appear. Calls of active or inactive are those of the source. Calls come from the whole dose curve; as a rule, active = well fitted inhibition curve with a large enough effect; inconclusive = small, poorly fitted or top-dose-only effect; inactive = flat fitted curve, though single readings scatter.
propertyName: outcome

Please review the following examples before continuing.
> print(dat)
                                entrysmiles    result
1                       CCOC(=O)c1ccc(N)cc1  inactive
2  CCCCNc1ccc(C(=O)OCCOCCOCCOCCOCCOCCOCCOCCOCCOC)cc1  inactive
3                         Cc1c[nH]c2ccccc12  inactive
4     CCc1oc2ccccc2c1C(=O)c1cc(I)c(O)c(I)c1  inactive
5  CCOC(=O)[C@H](CCc1ccccc1)N[C@@H](C)C(=O)N1[C@H](C(=O)O)C[C@H]2CCCC[C@@H]21  inactive
6                        CC(=O)Oc1ccc(C)cc1  inactive

Next compound, please.
Task: Please give the documented outcome of CC(=O)NCCCCCC(=O)O
Output: inactive

---

# testedOn: Voltage-gated inwardly rectifying potassium channel KCNH2 (Homo sapiens) (UniProt Q12809)
# Sequence (Q12809 whole entry, looked up): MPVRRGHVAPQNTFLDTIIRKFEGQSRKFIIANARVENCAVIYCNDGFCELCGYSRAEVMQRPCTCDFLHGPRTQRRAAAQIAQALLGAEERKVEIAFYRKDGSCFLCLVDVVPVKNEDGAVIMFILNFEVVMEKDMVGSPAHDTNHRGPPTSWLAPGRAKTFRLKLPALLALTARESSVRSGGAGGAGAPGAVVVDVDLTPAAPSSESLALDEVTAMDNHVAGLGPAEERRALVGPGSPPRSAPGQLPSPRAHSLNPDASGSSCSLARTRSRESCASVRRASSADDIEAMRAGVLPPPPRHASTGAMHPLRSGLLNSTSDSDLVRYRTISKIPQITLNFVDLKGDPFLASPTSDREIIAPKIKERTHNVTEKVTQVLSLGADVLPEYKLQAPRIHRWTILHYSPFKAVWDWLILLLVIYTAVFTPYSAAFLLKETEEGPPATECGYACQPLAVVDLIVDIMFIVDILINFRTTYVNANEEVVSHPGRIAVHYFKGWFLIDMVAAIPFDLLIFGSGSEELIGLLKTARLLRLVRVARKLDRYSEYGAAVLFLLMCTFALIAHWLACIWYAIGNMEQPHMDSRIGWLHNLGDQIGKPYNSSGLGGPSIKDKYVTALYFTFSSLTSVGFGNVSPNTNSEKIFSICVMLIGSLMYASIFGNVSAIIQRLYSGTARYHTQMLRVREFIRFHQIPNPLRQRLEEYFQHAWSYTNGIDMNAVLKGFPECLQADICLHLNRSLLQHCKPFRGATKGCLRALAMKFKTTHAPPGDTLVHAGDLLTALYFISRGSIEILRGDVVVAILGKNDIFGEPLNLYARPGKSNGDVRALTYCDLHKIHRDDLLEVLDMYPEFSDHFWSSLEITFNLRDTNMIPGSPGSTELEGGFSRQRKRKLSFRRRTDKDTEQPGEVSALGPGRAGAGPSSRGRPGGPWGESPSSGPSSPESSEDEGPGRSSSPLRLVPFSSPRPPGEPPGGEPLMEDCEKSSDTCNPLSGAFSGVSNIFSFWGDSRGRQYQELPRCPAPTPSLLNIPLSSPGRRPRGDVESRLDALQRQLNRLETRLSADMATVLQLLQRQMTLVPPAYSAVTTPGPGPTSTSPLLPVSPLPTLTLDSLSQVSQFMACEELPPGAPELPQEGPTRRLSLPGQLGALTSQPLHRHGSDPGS
# protocolSummary: qHTS Assay for Small Molecule Inhibitors of the Human hERG Channel Activity (AID 588834);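 also: lower thallium flux fluorescence means stronger hERG block; nearly all actives have a fitted effect of over 50% in size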
# conditionInfo: U2OS BacMam hERG, FluxOR thallium flux fluorescence; series mostly up to 46.1 µM
Inconclusive results are not listed. Active and inactive are the calls of the source. The call rests on the fitted dose curve; in most records, active means well fitted inhibition curve with a large enough effect; inconclusive means small, poorly fitted or top-dose-only effect; inactive means flat fitted curve, though single readings scatter.
// one of active, inactive, no free text

> print(dat)
                                entrysmiles  labelvalue
1                         CCCCN=C(N)N=C(N)N    inactive
2  CC(=O)O[C@]1(C(C)=O)CC[C@H]2[C@@H]3C=C(Cl)C4=CC(=O)CC[C@]4(C)[C@H]3CC[C@@]21C    inactive

Task: What is the recorded call for this compound in the test? CCc1cc(Cl)c(OC)c(C(=O)NC[C@@H]2CCCN2CC)c1O
Output: active

Task: What is the recorded call for this compound in the test? c1ccc(CC2=NCCN2)cc1
Output: inactive

Task: What is the recorded call for this compound in the test? CC(C)(C)NC[C@H](O)COc1nsnc1N1CCOCC1
Output: inactive

Task: What is the recorded call for this compound in the test? NC(N)=NN=C(/C=C/c1ccc([N+](=O)[O-])o1)/C=C/c1ccc([N+](=O)[O-])o1
Output: active

Ref: PubChem BioAssay (NCATS)
